- Tested on: C. albicans wild-type strain SC5314 biofilm formation
- Measurement Notes: microbe, parasite or virus in culture
- Type: cell-based, Candida albicans
- Condition Summary: Candida albicans, SC5314, 24 h
Measured Metric: pIC50
Answers are plain numbers, as −log10 of the molar value.

Solved entries (count: 3):
Compound	Measured Metric	Result
CC(NCCN(C)C)C1CCC2C3CCc4cc(O)ccc4C3CCC12C (stereo not drawn)	pIC50	8.01
N#Cc1cn([C@@H]2O[C@H](CO)[C@@H](O)[C@H]2O)c2ncnc(N)c12 [Compound 23, Vengicide (Unamycin B, Toyocamycin)]	pIC50	5.98
CO[C@H]1C[C@@H]2CC[C@@H](C)[C@@](O)(O2)C(=O)C(=O)N2CCCC[C@H]2C(=O)O[C@H]([C@H](C)C[C@@H]2CC[C@@H](O)[C@H](OC)C2)CC(=O)[C@H](C)/C=C(\C)[C@@H](O)[C@@H](OC)C(=O)[C@H](C)C[C@H](C)/C=C/C=C/C=C/1C [Compound 5, Rapamune (rapamycin, sirolimus)]	pIC50	6.29

Look up pIC50 for the entries below, preserving their order.
1. COc1cc2cc(C(=O)N3CC(COS(C)(=O)=O)c4ccc(O)cc43)[nH]c2c(OC)c1OC (stereo not drawn)
2. CCN(CC)CCN1c2ccccc2Sc2ccc3ccccc3c21

6.31
5.42

Any idea what its pIC50 is? The compound is CC1OC(CC(=O)O)Cc2c(O)c3c(c(O)c21)C(=O)C=C(C1=CC(=O)c2c(O)c4c(c(O)c2C1=O)CC(CC(=O)O)OC4C)C3=O (stereo not drawn) 5.48

----------
- Measurement Notes: in vitro
- Condition Summary: human
Measured Metric: CC50 at 24 h (µM)
One number for each entry, in µM.

Any idea what its CC50 at 24 h is? The compound is CC(NCCN(C)C)C1CCC2C3CCc4cc(O)ccc4C3CCC12C (stereo not shown) 8.08

----------
- Measurement Notes: in vitro
- Condition Summary: human
Starred links: 1 amine or outer side, 2 acyl side, 3 side chain; linkers in the order of their positions; H or OH if unused. Non-standard residues stand in square brackets, D forms with d. Residues, ends and D or L forms follow the SMILES beside them. *: point of attachment. X2 = CCC(=O)CC(O)C[C@@H](C)C[C@H](N[*:1])C(=O)[*:2]; Alaψ(CH2NMeCH2CH2OH) = C[C@@H](CN(C)CCO)N*; X1 = CCCCCCCCC(C)C(=O)*; Aib = CC(C)(N)C(=O)O
Measured Metric: CC50 (nM)
Answers are plain numbers, in nM.

Compound	Measured Metric	Unit Label	Result
CC(C)[C@@H]1NC(=O)[C@H](C)OC(=O)[C@@H](C(C)C)NC(=O)[C@@H](C(C)C)OC(=O)[C@H](C(C)C)NC(=O)[C@H](C)OC(=O)[C@@H](C(C)C)NC(=O)[C@@H](C(C)C)OC(=O)[C@H](C(C)C)NC(=O)[C@H](C)OC(=O)[C@@H](C(C)C)NC(=O)[C@@H](C(C)C)OC1=O	CC50	nM	2870

Please turn your attention to the following entry.
Any idea what its CC50 is? The compound is CCCCCCCCC(C)C(=O)N1CCC[C@H]1C(=O)N[C@@H](C[C@H](C)CC(O)CC(=O)CC)C(=O)N[C@@H](C)C(=O)NC(C)(C)C(=O)NC(C)(C)C(=O)N[C@H](C(=O)N[C@@H](C)C(=O)NC(C)(C)C(=O)NC(C)(C)C(=O)N[C@@H](C)CN(C)CCO)C(C)C (stereo partly shown) [Compound 19, Trichopolyn-B] (X1-P[X2]A[Aib][Aib]VA[Aib][Aib]-{Alaψ(CH2NMeCH2CH2OH)}; N-terminus and C-terminus assumed) 2990
